Tested on: P388 leukemia ip, CD2F1 mice, survival T/C
Test: NCI In Vivo Anticancer Drug Screen. Data for tumor model P388 Leukemia (intraperitoneal) in CD2F1 (CDF1) mice
Settings: endpoint: median survival time; dose: 120.0 mg/kg/injection; schedule: Q01DX005 (ip); vehicle: saline; higher = longer survival
Inconclusive results and toxic doses are left out.
OBSERVABLE: T/C

P388 leukemia ip, CD2F1 mice, survival T/C assay, compound `O=S(=O)(c1ccccc1)[C@H]1[C@@H]2O[C@@H]2C[C@@H]1O` , recorded T/C = 103 % of control

P388 leukemia ip, CD2F1 mice, survival T/C assay, compound `O=C1OCC/C1=C\N1CCCCC1` , recorded T/C = 100 % of control

P388 leukemia ip, CD2F1 mice, survival T/C assay, compound `CC(C)=NOCCC#N` , recorded T/C = 99 % of control

P388 leukemia ip, CD2F1 mice, survival T/C assay, compound `CC(C)=CCCC(=O)C(c1nc2nnc(N)n2[nH]c1=O)c1nc2nnc(N)n2[nH]c1=O` , recorded T/C = 104 % of control

P388 leukemia ip, CD2F1 mice, survival T/C assay, compound COC1c2ccccc2CC(c2ccccc2)=NN1C(C)=O (stereo not given) , recorded T/C = 102 % of control

P388 leukemia ip, CD2F1 mice, survival T/C assay, compound CC(=O)OCC1OC(CCC#N)C(OC(C)=O)C(OC(C)=O)C1OC(C)=O (stereo not given) , recorded T/C = 101 % of control

P388 leukemia ip, CD2F1 mice, survival T/C assay, compound `O=C(OCCO)c1c(Cl)c(Cl)c(Cl)c(Cl)c1-c1c2cc(Br)c(=O)c(Br)c-2oc2c(Br)c(O)c(Br)cc12` , recorded T/C = 92 % of control

P388 leukemia ip, CD2F1 mice, survival T/C assay, compound CCOP(=O)(CS(=O)(=O)CCC1(C)NC(=O)NC1=O)OCC (stereo not given) , recorded T/C = 103 % of control

P388 leukemia ip, CD2F1 mice, survival T/C assay, compound CCC(=O)C(C)C(=O)CCC(=O)Nc1cc(Cl)ccc1Cl (stereo not given) , recorded T/C = 103 % of control

P388 leukemia ip, CD2F1 mice, survival T/C assay, compound `CN(C)CCO[Si](C)(C)C[Si](C)(C)OCCN(C)C` , recorded T/C = 102 % of control

P388 leukemia ip, CD2F1 mice, survival T/C assay, compound `CCOC(=O)C1=C(C(C)=O)C(c2ccccc2[N+](=O)[O-])C(C(C)=O)=C(C(=O)OCC)N1` , recorded T/C = 105 % of control

P388 leukemia ip, CD2F1 mice, survival T/C assay, compound COc1ccc(OC)c(CC(C)N)c1 (stereo not given) , recorded T/C = 93 % of control

P388 leukemia ip, CD2F1 mice, survival T/C assay, compound NCCc1c[nH]c2ccc(O)cc12 (tested in a mixture with another compound) , recorded T/C = 100 % of control

P388 leukemia ip, CD2F1 mice, survival T/C assay, compound CCC1COCC1Cc1cncn1C (stereo not given) , recorded T/C = 103 % of control

P388 leukemia ip, CD2F1 mice, survival T/C assay, compound [N-]=[N+]=NCc1cnnn1C1OC(CO)C(O)C1O (stereo not given) , recorded T/C = 115 % of control
